# systemName: CRAF (Homo sapiens, UniProt P04049)
# Construct: fused on or other part: GST tag (N-terminal according to the vendor's product)
# Sequence (P04049 whole entry Y340E/Y341E, form open, the tested form may be a part): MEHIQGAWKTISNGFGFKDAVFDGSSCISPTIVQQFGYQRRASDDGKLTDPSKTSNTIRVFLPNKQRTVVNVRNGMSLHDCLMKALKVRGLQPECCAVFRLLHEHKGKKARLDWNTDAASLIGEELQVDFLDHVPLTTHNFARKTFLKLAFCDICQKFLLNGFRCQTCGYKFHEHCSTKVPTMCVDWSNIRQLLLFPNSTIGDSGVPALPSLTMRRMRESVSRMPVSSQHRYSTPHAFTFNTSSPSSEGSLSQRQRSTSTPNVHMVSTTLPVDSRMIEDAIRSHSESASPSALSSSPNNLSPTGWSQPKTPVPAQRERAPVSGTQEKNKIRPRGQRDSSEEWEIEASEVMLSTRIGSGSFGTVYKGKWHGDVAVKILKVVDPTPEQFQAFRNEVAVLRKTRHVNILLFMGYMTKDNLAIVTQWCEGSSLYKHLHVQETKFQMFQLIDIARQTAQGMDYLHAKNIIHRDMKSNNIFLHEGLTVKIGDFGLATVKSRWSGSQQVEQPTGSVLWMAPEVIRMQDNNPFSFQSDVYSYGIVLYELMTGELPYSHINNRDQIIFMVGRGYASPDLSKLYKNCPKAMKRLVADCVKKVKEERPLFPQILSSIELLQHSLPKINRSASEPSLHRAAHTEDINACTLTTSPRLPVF
# protocolSummary: CRAF kinase activity assay (ADP-Glo)
# Assay type: biochemical
# measurementSetup: Table 3; 10 μM ATP, kinase-dead MEK1 substrate
pIC50: −log10 of the molar value.

compound | pIC50
CN(CCN1CCOCC1)S(=O)(=O)c1cn(-c2nc3c(Nc4c(F)ccc(NS(=O)(=O)c5cccc(Cl)c5Cl)c4F)ncnc3s2)c2ccccc12 [Example 83] | 7.30 to 8.00
O=S(=O)(Nc1ccc(F)c(Nc2ncnc3sc(-n4cnc5c(N6CCC(O)(C(F)(F)F)CC6)cccc54)nc23)c1F)c1cccc(Cl)c1Cl [Example 137] | < 7.30
Cc1c(F)cccc1S(=O)(=O)Nc1ccc(F)c(Nc2ncnc3sc(-n4nc(C(=O)N5C6CCC5COC6)c5ccccc54)nc23)c1F [Example 34] | 7.30 to 8.00
Cc1c(F)cccc1S(=O)(=O)Nc1ccc(F)c(Nc2ncnc3sc(-n4cc(C(=O)N5CCC(CO)C5)c5ccccc54)nc23)c1F (centres unmarked) [Example 33] | > 8.00
CC1(O)CCN(C(=O)c2cn(-c3nc4c(Nc5c(F)ccc(NS(=O)(=O)c6cccc(Cl)c6Cl)c5F)ncnc4s3)c3ccccc23)CC1 [Example 85] | > 8.00

###

# systemName: BRAF (Homo sapiens, UniProt P15056)
# Construct: GST; purchased Millipore Sigma B4062-10UG
# Sequence (P15056 whole entry): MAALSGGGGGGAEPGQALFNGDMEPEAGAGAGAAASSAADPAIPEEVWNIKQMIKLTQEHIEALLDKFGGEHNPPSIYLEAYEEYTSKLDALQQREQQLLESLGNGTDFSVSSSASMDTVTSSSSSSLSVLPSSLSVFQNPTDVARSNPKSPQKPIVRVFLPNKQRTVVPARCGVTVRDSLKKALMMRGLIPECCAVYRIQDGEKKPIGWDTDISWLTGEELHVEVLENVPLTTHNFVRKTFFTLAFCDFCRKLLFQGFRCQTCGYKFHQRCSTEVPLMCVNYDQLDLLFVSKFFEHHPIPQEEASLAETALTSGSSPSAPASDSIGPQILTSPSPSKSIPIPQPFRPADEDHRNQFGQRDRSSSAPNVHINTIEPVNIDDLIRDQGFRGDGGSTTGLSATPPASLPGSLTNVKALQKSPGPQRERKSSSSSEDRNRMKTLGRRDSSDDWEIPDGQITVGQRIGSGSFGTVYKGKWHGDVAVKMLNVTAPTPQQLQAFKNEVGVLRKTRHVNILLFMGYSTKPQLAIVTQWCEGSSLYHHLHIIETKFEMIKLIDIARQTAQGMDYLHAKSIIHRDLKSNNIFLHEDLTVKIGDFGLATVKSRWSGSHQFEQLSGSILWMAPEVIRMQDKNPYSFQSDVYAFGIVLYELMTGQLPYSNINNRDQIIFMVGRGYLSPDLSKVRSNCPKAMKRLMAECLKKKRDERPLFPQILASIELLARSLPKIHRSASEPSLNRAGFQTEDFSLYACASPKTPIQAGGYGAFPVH
# protocolSummary: BRAF kinase activity assay (ADP-Glo)
# Format: biochemical
# measurementSetup: Table 3; 10 μM ATP, kinase-dead MEK1 substrate
pIC50: −log10 of the molar value.
assayEndpoint: pIC50

structureAsSmiles | result
O=S(=O)(CC1CCOCC1)c1cn(-c2nc3c(Nc4c(F)ccc(NS(=O)(=O)c5cccc(Cl)c5Cl)c4F)ncnc3s2)c2ccccc12 | 8.00 to 9.00
N#Cc1cccc2c1ncn2-c1nc2c(Nc3c(F)ccc(NS(=O)(=O)c4cccc(Cl)c4Cl)c3F)ncnc2s1 | 8.00 to 9.00
O=C(c1cn(-c2nc3c(Nc4c(F)ccc(NS(=O)(=O)c5cccc(Cl)c5Cl)c4F)ncnc3s2)c2ccccc12)N1C2CCC1COC2 | > 9.00
O=S(=O)(Nc1ccc(F)c(Nc2ncnc3sc(-n4cnc5c(N6CCC[C@H](O)C6)cccc54)nc23)c1F)c1cccc(Cl)c1Cl | > 9.00

###

# systemName: BRAF (Homo sapiens)
# Construct: GST; purchased Millipore Sigma B4062-10UG
# protocolSummary: BRAF kinase activity assay (ADP-Glo)
# Format: biochemical
# measurementSetup: Table 3; 10 μM ATP, kinase-dead MEK1 substrate
pIC50: −log10 of the molar value.
assayEndpoint: pIC50

compound | result
COCCCN(C)c1cccc2c1ncn2-c1nc2c(Nc3c(F)ccc(NS(=O)(=O)c4cccc(Cl)c4Cl)c3F)ncnc2s1 [Example 128] | 8.00 to 9.00
Cc1c(F)cccc1S(=O)(=O)Nc1ccc(F)c(Nc2ncnc3sc(-n4nc(C(=O)N5C6CCC5COC6)c5ccccc54)nc23)c1F [Example 34] | < 8.00
O=C(c1cn(-c2nc3c(Nc4c(F)ccc(NS(=O)(=O)c5cccc(Cl)c5Cl)c4F)ncnc3s2)c2ccccc12)N1C2CCC1CN(CCO)C2 [Example 98] | 8.00 to 9.00
Cc1c(F)cccc1S(=O)(=O)Nc1ccc(F)c(Nc2ncnc3sc(-n4cnc5c(-c6cccnc6)cccc54)nc23)c1F [Example 8] | 8.00 to 9.00
O=C(c1cn(-c2nc3c(Nc4c(F)ccc(NS(=O)(=O)c5cccc(Cl)c5Cl)c4F)ncnc3s2)c2ccccc12)N1CC(C(F)F)C1 [Example 57] | 8.00 to 9.00
Cc1c(F)cccc1S(=O)(=O)Nc1ccc(F)c(Nc2ncnc3sc(-n4nnc5ccccc54)nc23)c1F [Example 22] | < 8.00
Cc1c(F)cccc1S(=O)(=O)Nc1ccc(F)c(Nc2ncnc3sc(-n4nc(C(=O)N(C)Cc5cccnc5)c5ccccc54)nc23)c1F [Example 23] | < 8.00
CC(C)(O)C1CCCN1C(=O)c1cn(-c2nc3c(Nc4c(F)ccc(NS(=O)(=O)c5cccc(Cl)c5Cl)c4F)ncnc3s2)c2ccc(F)cc12 (centres unmarked) [Example 101] | < 8.00
O=S(=O)(Nc1ccc(F)c(Nc2ncnc3sc(-n4cnc5c(F)c(OCCO)ccc54)nc23)c1F)c1cccc(Cl)c1Cl [Example 80] | 8.00 to 9.00
O=C(c1cccs1)c1cn(-c2nc3c(Nc4c(F)ccc(NS(=O)(=O)c5cccc(Cl)c5Cl)c4F)ncnc3s2)c2ccccc12 [Example 107] | < 8.00
O=S(=O)(Nc1ccc(F)c(Nc2ncnc3sc(-n4cnc5c(N6CCC(O)CC6)cccc54)nc23)c1F)c1cccc(Cl)c1Cl [Example 144] | 8.00 to 9.00
